Data origin: patent US6274620A

Molecular target: α5β1 (Homo sapiens, UniProt P05556+P08648)
Construct: Cells HT29, K562, or K562 transfected with αvβ3; endogenous in cells
Sequence (P08648 42-894 limits assumed): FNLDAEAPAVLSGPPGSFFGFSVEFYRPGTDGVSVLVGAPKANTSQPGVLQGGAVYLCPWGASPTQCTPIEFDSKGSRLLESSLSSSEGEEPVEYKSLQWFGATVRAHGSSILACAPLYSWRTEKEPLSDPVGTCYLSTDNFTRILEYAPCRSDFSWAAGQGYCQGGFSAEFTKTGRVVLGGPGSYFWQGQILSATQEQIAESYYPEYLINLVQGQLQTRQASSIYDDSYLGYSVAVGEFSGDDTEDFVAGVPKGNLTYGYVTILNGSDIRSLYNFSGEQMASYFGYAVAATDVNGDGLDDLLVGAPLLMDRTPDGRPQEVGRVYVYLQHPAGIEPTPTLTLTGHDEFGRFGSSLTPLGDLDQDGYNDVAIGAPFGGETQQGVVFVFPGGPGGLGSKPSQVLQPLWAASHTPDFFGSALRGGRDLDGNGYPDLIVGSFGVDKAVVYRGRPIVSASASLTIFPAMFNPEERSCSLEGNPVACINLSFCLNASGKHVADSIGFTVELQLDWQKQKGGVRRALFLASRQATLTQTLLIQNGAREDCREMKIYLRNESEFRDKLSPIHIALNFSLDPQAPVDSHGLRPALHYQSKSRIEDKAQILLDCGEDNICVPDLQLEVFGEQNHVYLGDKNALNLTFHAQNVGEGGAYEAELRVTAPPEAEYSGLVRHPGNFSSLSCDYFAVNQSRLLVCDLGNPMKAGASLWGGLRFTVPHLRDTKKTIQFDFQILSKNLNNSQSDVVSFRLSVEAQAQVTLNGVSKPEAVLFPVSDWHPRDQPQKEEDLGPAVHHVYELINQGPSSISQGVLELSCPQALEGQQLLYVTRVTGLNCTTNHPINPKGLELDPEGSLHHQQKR
Sequence (P08648 895-1049 limits assumed): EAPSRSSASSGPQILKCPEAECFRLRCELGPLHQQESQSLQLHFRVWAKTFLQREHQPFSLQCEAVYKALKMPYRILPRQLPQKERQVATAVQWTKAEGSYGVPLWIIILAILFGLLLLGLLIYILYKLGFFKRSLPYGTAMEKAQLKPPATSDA
Sequence (P05556 21-798): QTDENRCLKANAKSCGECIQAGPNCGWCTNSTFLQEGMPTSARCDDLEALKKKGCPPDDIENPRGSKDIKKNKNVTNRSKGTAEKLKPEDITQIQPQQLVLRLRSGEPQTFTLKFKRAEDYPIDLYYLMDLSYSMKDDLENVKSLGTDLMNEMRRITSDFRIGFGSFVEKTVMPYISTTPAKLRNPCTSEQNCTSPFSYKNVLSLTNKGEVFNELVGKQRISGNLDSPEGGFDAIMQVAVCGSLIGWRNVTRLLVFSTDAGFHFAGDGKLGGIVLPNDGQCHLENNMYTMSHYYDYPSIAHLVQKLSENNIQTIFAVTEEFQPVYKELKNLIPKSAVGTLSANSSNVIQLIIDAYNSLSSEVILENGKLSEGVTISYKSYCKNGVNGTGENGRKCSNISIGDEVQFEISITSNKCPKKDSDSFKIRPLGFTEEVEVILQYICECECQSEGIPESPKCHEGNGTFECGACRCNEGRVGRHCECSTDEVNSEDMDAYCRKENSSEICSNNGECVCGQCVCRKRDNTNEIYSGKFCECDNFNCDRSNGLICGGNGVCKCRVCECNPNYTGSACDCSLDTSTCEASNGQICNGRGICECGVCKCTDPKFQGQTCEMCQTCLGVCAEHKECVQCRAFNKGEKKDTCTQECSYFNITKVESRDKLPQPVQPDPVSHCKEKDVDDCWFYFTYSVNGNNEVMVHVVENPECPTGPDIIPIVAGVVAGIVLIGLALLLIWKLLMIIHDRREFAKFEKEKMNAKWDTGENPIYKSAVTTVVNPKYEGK
Experiment: Cell attachment assay, α5β1
Conditions: 1 hour at 37° C
Where a name gives a salt, the structure may show the parent alone.
MEASURED ENDPOINT: pIC50
Answers are plain numbers, as −log10 of the molar value.

// solved cases for pIC50 follow
COMPOUND: Cc1cc(C)c(S(=O)(=O)N[C@@H](CNC(=O)c2ccc(/C=C/CNC(=N)N)s2)C(=O)O)c(C)c1 [Compound U-2]
pIC50: 8.21

COMPOUND: Cc1cc(C)c(S(=O)(=O)N[C@@H](CNC(=O)c2ccc(-c3cccc(NC(=N)N)c3)s2)C(=O)O)c(C)c1 [Compound M-3, (trifluoroacetic acid salt)]
pIC50: 7.47

COMPOUND: N=C(N)NCc1cccc(-c2ccc(C(=O)NC[C@H](NS(=O)(=O)c3ccccc3)C(=O)O)s2)c1 [Compound E-2, trifluoroacetic acid salt]
pIC50: 6.19

COMPOUND: N=C(N)Nc1cccc(-c2ccc(C(=O)NC[C@H](NS(=O)(=O)c3ccccc3)C(=O)O)s2)c1 [Compound K-3, (trifluoroacetic acid salt)]
pIC50: 7.10

I'd like to know its pIC50. The compound in question is Cc1cc(C)c(S(=O)(=O)N[C@@H](CNC(=O)c2ccc(-c3cccc(CNC(=N)N)c3)s2)C(=O)O)c(C)c1 [Compound F-2, trifluoroacetic acid salt]
7.15
